experiment: AUC (0.25 to last) in rat plasma at 3 mg/kg, ip; type: ADME, organism-based; set-up: dose 3 mg/kg, route ip
outcome measure: AUC (ng·h/mL)
Give the value, in units of ng·h/mL, as a plain number.

For reference, reported AUC for `CC(=O)Nc1ccc(-c2ccc(NC[C@@H]3CC34CCN(CC3CCOCC3)CC4)nn2)cc1` stands at 9550

----------
experiment: Intrinsic clearance in human liver microsomes; type: ADME, Microsome; settings: read-out: CLH
outcome measure: predicted hepatic clearance (mL/min/kg)
Write the answer as a number in mL/min/kg, unit excluded.

These solved cases illustrate the format of a correct answer.
compound structure string	outcome measure	scale unit	reported value
Fc1ccc(Cl)c(-c2ccc(NC[C@@H]3CC34CCN(CC3CCOCC3)CC4)nn2)c1	predicted hepatic clearance	mL/min/kg	15
CC(=O)Nc1ccc(-c2ccc(NC[C@@H]3CC34CCN(CC3CCOCC3)CC4)nn2)cc1	predicted hepatic clearance	mL/min/kg	16
Fc1ccc(F)c(-c2ccc(NC[C@@H]3CC34CCN(CC3CCOCC3)CC4)nn2)c1	predicted hepatic clearance	mL/min/kg	10
Fc1cc(F)c(F)c(-c2ccc(NC[C@@H]3CC34CCN(CC3CCOCC3)CC4)nn2)c1	predicted hepatic clearance	mL/min/kg	8.4
[2H]C([2H])(C1CCOCC1)N1CCC2(CC1)C[C@H]2CNc1ccc(-c2cc(F)cc(F)c2F)nn1	predicted hepatic clearance	mL/min/kg	11

Reported predicted hepatic clearance ( `Cn1cc2cc(-c3ccc(NC[C@@H]4CC45CCN(CC4CCOCC4)CC5)nn3)ccc2n1` ) = 5.9

Per the records, this compound ( `c1ccc(-c2ccc(NC[C@@H]3CC34CCN(CC3CCOCC3)CC4)nn2)cc1` ) has predicted hepatic clearance equal to 8

----------
target: Muscarinic acetylcholine receptor M2 (Homo sapiens, UniProt P08172); assay: Inhibition of human muscarinic acetylcholine M2 receptor expressed in CHO cells co-expressing Gqi5 preincubated with compound followed by acetylcholine addition at EC80 concentration by calcium mobilization assay; type: functional, cell-based
Sequence (P08172 whole entry): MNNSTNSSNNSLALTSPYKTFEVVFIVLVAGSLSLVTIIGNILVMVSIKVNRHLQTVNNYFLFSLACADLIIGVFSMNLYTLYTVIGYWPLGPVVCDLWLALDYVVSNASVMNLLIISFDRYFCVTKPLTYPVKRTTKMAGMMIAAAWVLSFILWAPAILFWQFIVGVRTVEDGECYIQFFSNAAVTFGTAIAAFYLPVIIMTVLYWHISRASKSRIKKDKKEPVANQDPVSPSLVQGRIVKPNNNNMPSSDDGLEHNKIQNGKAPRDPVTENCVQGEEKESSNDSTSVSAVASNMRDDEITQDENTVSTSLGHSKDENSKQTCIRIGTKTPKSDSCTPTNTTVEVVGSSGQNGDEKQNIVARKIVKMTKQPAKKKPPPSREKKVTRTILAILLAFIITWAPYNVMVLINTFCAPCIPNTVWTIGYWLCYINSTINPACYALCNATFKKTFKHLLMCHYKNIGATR
outcome measure: IC50

// IC50 value for `CC(=O)Nc1ccc(-c2ccc(NC[C@@H]3CC34CCN(CC3CCOCC3)CC4)nn2)cc1` : > 10 µM

----------
experiment: Cmax in rat brain at 3 mg/kg, ip; assay type: ADME, organism-based; parameters: dose 3 mg/kg, route ip
outcome measure: Cmax (ng/g)
Provide the reading as a plain figure in ng/g.

The molecule `CC(=O)Nc1ccc(-c2ccc(NC[C@@H]3CC34CCN(CC3CCOCC3)CC4)nn2)cc1` showed Cmax equal to 477

----------
target: Muscarinic acetylcholine receptor M4 (Homo sapiens); assay: Inhibition of human muscarinic acetylcholine M4 receptor expressed in CHO cells co-expressing Gqi5 in the presence of acetylcholine at EC80 concentration by calcium mobilization assay
Quick reference: pIC50 of the listed items.
API: returns pIC50 as number; meaning -log10 of concentration in mol/L.

For orientation, consider the following solved cases.
compound structure string	reported value
Fc1cc(F)c(F)c(-c2ccc(NC[C@@H]3CC34CCN(CC3CCOCC3)CC4)nn2)c1	7.48
Fc1ccc(Cl)c(-c2ccc(NC[C@@H]3CC34CCN(CC3CCOCC3)CC4)nn2)c1	8.74
Fc1ccc(-c2ccc(NC[C@@H]3CC34CCN(CC3CCOCC3)CC4)nn2)cc1	6.55

Next compound, pIC50 to be filled in.
The compound identified as `Fc1ccccc1-c1ccc(NC[C@@H]2CC23CCN(CC2CCOCC2)CC3)nn1` registered its pIC50 at 7.14

----------
Target: Muscarinic acetylcholine receptor M4 (Homo sapiens) (UniProt P08173)
Sequence (whole entry): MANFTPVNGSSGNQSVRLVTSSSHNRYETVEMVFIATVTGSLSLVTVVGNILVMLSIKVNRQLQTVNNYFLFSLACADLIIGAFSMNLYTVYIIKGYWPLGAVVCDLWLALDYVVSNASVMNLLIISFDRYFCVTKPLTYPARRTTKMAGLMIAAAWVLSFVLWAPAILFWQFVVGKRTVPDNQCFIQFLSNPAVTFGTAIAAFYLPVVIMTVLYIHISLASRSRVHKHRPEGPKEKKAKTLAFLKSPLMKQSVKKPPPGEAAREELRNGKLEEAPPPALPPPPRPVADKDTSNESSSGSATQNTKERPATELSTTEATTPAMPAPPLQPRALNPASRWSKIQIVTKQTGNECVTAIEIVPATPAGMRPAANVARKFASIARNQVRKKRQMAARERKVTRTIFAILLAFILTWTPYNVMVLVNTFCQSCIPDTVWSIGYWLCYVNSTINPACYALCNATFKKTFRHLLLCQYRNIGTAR
Test: Antagonist activity at human muscarinic acetylcholine M4 receptor expressed in CHO cells co-expressing Gqi5 assessed as minimal acetylcholine response by calcium mobilization assay relative to control
Assay type: functional, cell-based
Parameters: scale not given: the % may be the effect or the level left
Settings: filed as antagonist
Entries and their Activity values follow.
Provide the reading as a plain figure in %.

These recorded examples may help you get a feel for the data.
compound structure string	study system	Activity (%)
Fc1ccccc1-c1ccc(NC[C@@H]2CC23CCN(CC2CCOCC2)CC3)nn1	Muscarinic acetylcholine receptor M4 (Homo sapiens) (UniProt P08173)	4.3
Fc1ccc(-c2ccc(NC[C@@H]3CC34CCN(CC3CCOCC3)CC4)nn2)cc1	Muscarinic acetylcholine receptor M4 (Homo sapiens) (UniProt P08173)	4.1
Fc1ccc(Cl)c(-c2ccc(NC[C@@H]3CC34CCN(CC3CCCCC3)CC4)nn2)c1	Muscarinic acetylcholine receptor M4 (Homo sapiens) (UniProt P08173)	2.6
Fc1ccc(Cl)c(-c2ccc(NC[C@H]3CC34CCN(CC3CCCCC3)CC4)nn2)c1	Muscarinic acetylcholine receptor M4 (Homo sapiens) (UniProt P08173)	3.7
c1ccc(-c2ccc(NC[C@@H]3CC34CCN(CC3CCOCC3)CC4)nn2)cc1	Muscarinic acetylcholine receptor M4 (Homo sapiens) (UniProt P08173)	3.5
Fc1ccc(Cl)c(-c2ccc(NC3CC4(C3)CN(CC3CCOCC3)C4)nn2)c1	Muscarinic acetylcholine receptor M4 (Homo sapiens) (UniProt P08173)	7.8

The molecule listed as `CC(=O)Nc1ccc(-c2ccc(NC[C@@H]3CC34CCN(CC3CCOCC3)CC4)nn2)cc1` shows Activity equal to 3.2

Input `Cn1cc2cc(-c3ccc(NC[C@@H]4CC45CCN(CC4CCOCC4)CC5)nn3)ccc2n1` . Output Activity: 3.6

The reported Activity of the molecule `Fc1ccc(Cl)c(-c2ccc(NCC3CC4(CCN(CC5CCOCC5)CC4)C3)nn2)c1` was 4.7

For `Fc1ccc(Cl)c(-c2ccc(NC[C@@H]3CC34CCN(CC3CCOCC3)CC4)nn2)c1` the molecule record lists Activity as 4.5
